Examples of compounds with documented IC50 follow.
Target: IL-17A/F (Homo sapiens, UniProt Q16552+Q96PD4)
Sequence (Q16552 24-155): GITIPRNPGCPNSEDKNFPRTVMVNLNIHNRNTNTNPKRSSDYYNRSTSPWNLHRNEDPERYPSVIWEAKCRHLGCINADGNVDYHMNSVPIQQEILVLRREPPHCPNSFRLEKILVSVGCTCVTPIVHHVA
Sequence (Q96PD4 31-163): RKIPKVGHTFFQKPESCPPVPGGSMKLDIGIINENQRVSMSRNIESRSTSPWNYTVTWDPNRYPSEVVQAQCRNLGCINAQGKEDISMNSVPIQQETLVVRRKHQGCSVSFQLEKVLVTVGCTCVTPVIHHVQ
Assay: IL-17A/F HEK-Blue cell assay (SEAP reporter)
Settings: HEK-Blue IL-17A reporter cells, IL17A/F 5 ng/mL, 20 hours, SEAP read at A630; read-out: HEK-Blue IL17AF (IC50 for IL-17A/F inhibition)

Take a look at these entries with their results.
compound | recorded result
CCn1nccc1C(=O)N[C@H](c1cn2nc(C[C@H]3C[C@@H](C(F)(F)F)CNC3=O)c(N(C)CC3(C)COC3)nc2n1)C1CCC(F)(F)CC1 | > 1 µM
CCn1nccc1C(=O)N[C@H](c1cn2nc(C[C@H]3C[C@@H](C(F)(F)F)CNC3=O)c(C3CCN(CCOC)C3)nc2n1)C1CCC(F)(F)CC1 (stereo partly drawn) | > 1 µM
CCn1nccc1C(=O)N[C@H](c1cn2nc(CC3C[C@@H](C(F)(F)F)CNC3=O)c(N3CCOCC3)nc2n1)C1CCC(F)(F)CC1 (mixture of isomers) [Compound 19] | > 1 µM
Cc1nonc1C(=O)N[C@H](c1cn2nc(C[C@H]3C[C@@H](C(F)(F)F)CNC3=O)c([C@H]3CCOC3)nc2n1)C1CCC(F)(F)CC1 (single isomer, unassigned) | > 1 µM
CCc1nonc1C(=O)N[C@H](c1cn2nc(C[C@@H]3C[C@@H](C)CNC3=O)c(C3CCOCC3)nc2n1)C1CCC(F)(F)CC1 | > 1 µM

Consider the record given below.
query: Check IL-17A/F (Homo sapiens, UniProt Q16552+Q96PD4) data and give IC50 for "CCc1nonc1C(=O)N[C@H](c1cn2nc(C[C@H]3C[C@@H](C(F)(F)F)CNC3=O)c(N3CCOCC3)nc2n1)C1CCCCC1" .
result: > 1 µM
